// provenance: the Kinase Knowledgebase extract (Sharma et al. 2016)

Each entry below carries its reported IC50.
system.name: CDK2 (UniProt P24941)
measurement.description: Enzyme Assay

smiles.string | IC50
COc1ccc(-c2cc(Nc3ccc(NC(=O)[C@@H]4CCCCN4)cc3)ncn2)c(OC)c1 | 1 to 10 µM
COc1ccc(-c2cc(Nc3ccc(NC(=O)c4ccc(N)cc4)cc3)ncn2)cc1 | 1 to 10 µM
COc1ccccc1-c1cc(Nc2ccc(NS(=O)(=O)c3ccc(C(C)C)cc3)cc2)ncn1 | 1 to 10 µM
